Could you please report measured AC50 for the items listed next?
- System: H460 (NRF2 pathway mutant cell line with high AKR1C3 expression)
- measurement.description: In vitro cell proliferation assay (CellTiter-Glo), H460
- Format: cell-based
- particulars: Homo sapiens, NCI-H460, 72 h; H460 cells, 3 days, CellTiter-Glo, top concentration 10 μM; read-out: H460 Qualified absolute AC50
The figure you give is taken to be in nM; do not add the unit.

Problem: Value lookup for AC50; key = O=C1CC2(CCN(C(=O)NCc3cnoc3)CC2)Nc2ccc(F)cc21
Result: 612

Problem: Here is the next compound: O=C1CC2(CCN(C(=O)NCc3ccc(F)c(NCCO)c3)CC2)Nc2ccc(F)cc21
Result: 321

Problem: Here is the next compound: O=C1CC2(CCN(C(=O)NCc3ccon3)CC2)Nc2ccc(F)cc21
Result: 1010

Problem: Here is the next compound: CN1c2ccc(F)cc2C(O)CC12CCN(C(=O)NCc1ccc(F)c(CC(N)=O)c1)CC2 (racemic)
Result: 278
